Assay: Antagonist activity at LPA5 receptor in human isolated platelets assessed as inhibition of hexadecyl-LPA-induced platelet aggregation after 3 mins
pIC50: −log10 of the molar value.
VALUE KIND: pIC50

[[record]]
compound = "Cc1noc(-c2ccc(CSCCC(=O)O)cc2)c1NC(=O)OC(C)c1ccccc1Cl (stereo not drawn)"
value_kind = "pIC50"
reported_result = "< 4.52"

[[record]]
compound = "Cc1csc2c(N[C@@H](C)CN3CCN(S(=O)(=O)c4ccc(Cl)c(Cl)c4)CC3)ncnc12"
value_kind = "pIC50"
reported_result = "< 4.52"

[[record]]
compound = "COc1cccc(-n2nc(C(=O)O)cc2-c2ccc(C3CCCCC3)c(Cl)c2)c1"
value_kind = "pIC50"
reported_result = 5.66


----------
Experiment: Antagonist activity at LPA2 receptor in human isolated platelets assessed as inhibition of TRAP-induced platelet aggregation after 3 mins
pIC50: −log10 of the molar value.
VALUE KIND: pIC50

[[record]]
smiles_data = "COc1cccc(-n2nc(C(=O)O)cc2-c2ccc(C3CCCCC3)c(Cl)c2)c1"
reported_result = "< 5.00"

